Reference source: patent US20250026766A1

Each record here notes measured IC50.
Target: Pol Theta (1-894) (Homo sapiens (Human), UniProt O75417)
Sequence (O75417 1-894): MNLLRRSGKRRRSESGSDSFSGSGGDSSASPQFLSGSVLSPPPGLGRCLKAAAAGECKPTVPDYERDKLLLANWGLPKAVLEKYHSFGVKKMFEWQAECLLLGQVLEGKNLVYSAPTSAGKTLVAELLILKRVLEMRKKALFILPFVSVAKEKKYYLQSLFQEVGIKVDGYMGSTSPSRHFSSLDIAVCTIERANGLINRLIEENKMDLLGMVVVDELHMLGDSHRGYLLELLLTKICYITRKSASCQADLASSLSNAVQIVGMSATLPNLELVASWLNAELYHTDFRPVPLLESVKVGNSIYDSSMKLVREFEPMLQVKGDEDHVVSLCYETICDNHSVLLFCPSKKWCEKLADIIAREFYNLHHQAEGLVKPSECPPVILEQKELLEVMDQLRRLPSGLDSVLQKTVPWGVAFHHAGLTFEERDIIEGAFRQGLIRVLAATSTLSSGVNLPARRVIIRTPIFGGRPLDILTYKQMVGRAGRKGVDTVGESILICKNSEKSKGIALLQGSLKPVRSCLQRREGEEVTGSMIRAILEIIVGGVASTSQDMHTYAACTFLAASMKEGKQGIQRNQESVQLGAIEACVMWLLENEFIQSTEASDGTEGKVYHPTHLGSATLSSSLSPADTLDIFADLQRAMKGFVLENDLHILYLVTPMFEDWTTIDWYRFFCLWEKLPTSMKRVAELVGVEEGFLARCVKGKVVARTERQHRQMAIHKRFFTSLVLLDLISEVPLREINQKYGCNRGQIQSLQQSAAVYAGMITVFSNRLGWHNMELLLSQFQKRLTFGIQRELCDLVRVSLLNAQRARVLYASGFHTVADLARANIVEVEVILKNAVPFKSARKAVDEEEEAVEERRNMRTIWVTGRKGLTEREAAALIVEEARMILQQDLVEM
State just the number; it will be interpreted in nM.

Below: 3 compounds and their reported IC50.
compound	IC50 (nM)
COc1ccccc1-c1cnncc1C(=O)Nc1nc2ccc(-c3ccc(N4COCC4=O)cc3)nc2s1 [Example 149]	18
COc1ccc(C#N)cc1-c1cc(C)ncc1C(=O)Nc1nc2ccc(-c3ccc(C#N)cc3C)nc2s1 [Example 169]	7.5
COc1ccc(C#N)cc1-c1cc(C)ncc1C(=O)Nc1nc2ccc(CCc3ccc(Cl)cc3)nc2s1 [Example 107]	17

Consider the compound shown here: COc1cc(Cl)ccc1Oc1ccc2nc(NC(=O)c3cnncc3-c3ccccc3OC)sc2n1 [Example 154] What is its recorded IC50?
60

Consider the compound shown here: COc1ccccc1-c1cnncc1C(=O)Nc1nc2ccc(C(=O)NCCO)nc2s1 [Example 112] What is its recorded IC50?
60

Consider the compound shown here: COc1ccc(C#N)cc1-c1cc(C)ncc1C(=O)Nc1nc2ccc(-c3ccc(CO)cc3)nc2s1 [Example 44] What is its recorded IC50?
14

Consider the compound shown here: COc1c(F)cccc1-c1cc(C)ncc1C(=O)Nc1nc2ccc(-c3ccc(C#N)cc3)nc2s1 [Example 75] What is its recorded IC50?
32

Consider the compound shown here: COCCOc1ccc2nc(NC(=O)c3cnc(C)cc3-c3cc(C#N)ccc3OC)sc2n1 [Example 77] What is its recorded IC50?
50
